Assay: self-splicing fitness, log relative to wild type (ln ratio); higher = more splicing; Tetrahymena group I intron in knt gene, E. coli kanamycin selection, DiMSum; sequences stand for … in CUCUCU…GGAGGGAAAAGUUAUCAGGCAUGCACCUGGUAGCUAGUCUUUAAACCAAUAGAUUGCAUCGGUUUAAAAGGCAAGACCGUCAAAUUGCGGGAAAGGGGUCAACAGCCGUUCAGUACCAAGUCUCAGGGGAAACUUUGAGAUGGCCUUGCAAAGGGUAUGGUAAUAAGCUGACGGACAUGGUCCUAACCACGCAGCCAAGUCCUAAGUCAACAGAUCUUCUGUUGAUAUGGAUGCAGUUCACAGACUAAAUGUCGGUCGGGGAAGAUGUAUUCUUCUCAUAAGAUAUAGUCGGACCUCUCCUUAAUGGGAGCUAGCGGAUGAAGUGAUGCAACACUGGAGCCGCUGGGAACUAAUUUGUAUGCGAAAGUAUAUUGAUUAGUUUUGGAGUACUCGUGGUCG;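 note: selection with 25 µg/mL kanamycin versus none on LB agar overnight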
Conditions: 30 °C
Reported self-splicing fitness (ln) is given for each of the following sequences.
I'd appreciate a reply containing only the number, no unit.

Here's what some known entries look like.
INSERT INTO results (polymer_sequence, measure_name, reported) VALUES
  ('GGGUAGCAAUAUUACGCUUG', 'self-splicing fitness (ln)', -0.33),
  ('GCCCAGCAAUAUUACGUAAG', 'self-splicing fitness (ln)', -1.15),
  ('GGACAGCAAUAUUACGACGC', 'self-splicing fitness (ln)', -0.126),
  ('CUCAAGCAAUAUUACGCUUA', 'self-splicing fitness (ln)', -2.62),
  ('CAAUAGCAAUAUUACGAUAU', 'self-splicing fitness (ln)', -4.72);

Lookup: So what's the measured self-splicing fitness (ln) for this one? "UCAUAGCAAUAUUACGAGGA"
Found: -3.42

Lookup: So what's the measured self-splicing fitness (ln) for this one? "AGACAGCAAUAUUACGACUG"
Found: -1.14

Lookup: So what's the measured self-splicing fitness (ln) for this one? "AUCUAGCAAUAUUACGAGGA"
Found: -2.83

Lookup: So what's the measured self-splicing fitness (ln) for this one? "AGCCAGCAAUAUUACGUCUU"
Found: -1.23

Lookup: So what's the measured self-splicing fitness (ln) for this one? "CUCAAGCAAUAUUACGCAGC"
Found: -4.03

###

Assay: self-splicing fitness, log relative to wild type (ln ratio); higher = more splicing; Tetrahymena group I intron in knt gene, E. coli kanamycin selection, DiMSum; sequences stand for … in CUCUCU…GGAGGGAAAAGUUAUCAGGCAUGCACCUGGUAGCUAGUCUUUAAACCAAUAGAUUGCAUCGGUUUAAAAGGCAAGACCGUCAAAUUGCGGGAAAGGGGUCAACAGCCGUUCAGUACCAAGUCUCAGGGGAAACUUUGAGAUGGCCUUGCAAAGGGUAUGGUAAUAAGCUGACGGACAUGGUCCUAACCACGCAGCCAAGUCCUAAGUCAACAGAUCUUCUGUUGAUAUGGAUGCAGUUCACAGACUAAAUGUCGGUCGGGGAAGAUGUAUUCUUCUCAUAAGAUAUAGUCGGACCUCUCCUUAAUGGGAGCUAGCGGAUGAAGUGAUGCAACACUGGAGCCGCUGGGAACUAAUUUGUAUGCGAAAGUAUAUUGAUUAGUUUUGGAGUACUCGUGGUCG
Details: 30 °C
Decision: self-splicing fitness (ln) compared against -2; not below it gives criterion met, below it gives criterion not met.

Worked set:
INSERT INTO results (polymer_sequence, cat) VALUES
  ('AGGCAGCAAUAUUACGGACC', 'criterion met'),
  ('GCGAAGCAAUAUUACGCGCU', 'criterion met');

Lookup: Could you please find out whether "AUGGAGCAAUAUUACGGGGC" has self-splicing fitness (ln) that meets -2 or exceeds it?
Found: criterion not met

Lookup: Could you please find out whether "GUGAAGCAAUAUUACGAGAG" has self-splicing fitness (ln) that meets -2 or exceeds it?
Found: criterion not met

Lookup: Could you please find out whether "UACAAGCAAUAUUACGGCUA" has self-splicing fitness (ln) that meets -2 or exceeds it?
Found: criterion met

###

Experiment: self-splicing fitness, log relative to wild type (ln ratio); higher = more splicing; Tetrahymena group I intron in knt gene, E. coli kanamycin selection, DiMSum; sequences stand for … in CUCUCU…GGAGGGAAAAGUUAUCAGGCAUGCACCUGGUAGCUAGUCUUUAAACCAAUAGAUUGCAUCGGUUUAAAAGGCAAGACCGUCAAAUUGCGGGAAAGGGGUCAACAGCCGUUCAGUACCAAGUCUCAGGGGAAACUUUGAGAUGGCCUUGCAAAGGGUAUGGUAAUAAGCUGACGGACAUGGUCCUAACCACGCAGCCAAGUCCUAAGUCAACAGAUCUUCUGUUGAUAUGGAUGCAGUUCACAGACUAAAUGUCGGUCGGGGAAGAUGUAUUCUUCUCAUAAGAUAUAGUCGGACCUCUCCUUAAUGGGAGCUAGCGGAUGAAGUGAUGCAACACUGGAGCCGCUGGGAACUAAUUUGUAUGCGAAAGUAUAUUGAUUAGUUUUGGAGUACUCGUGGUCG
Details: 30 °C
Reported self-splicing fitness (ln) is given for each of the following sequences.

INSERT INTO assay_data (polymer_sequence, measure_name, reported) VALUES
  ('CGGCAGCAAUAUUACGGGUA', 'self-splicing fitness (ln)', -3.66),
  ('CCAUAGCAAUAUUACGAGAU', 'self-splicing fitness (ln)', -3.81),
  ('GCCCAGCAAUAUUACGUACU', 'self-splicing fitness (ln)', -0.0223);

Lookup: So what's the measured self-splicing fitness (ln) for this one? "AUGGAGCAAUAUUACGGCGC"
Found: -2.45

Lookup: So what's the measured self-splicing fitness (ln) for this one? "GUAAAGCAAUAUUACGAACG"
Found: -0.437

###

Assay: self-splicing fitness, log relative to wild type (ln ratio); higher = more splicing; Tetrahymena group I intron in knt gene, E. coli kanamycin selection, DiMSum; sequences stand for … in CUCUCU…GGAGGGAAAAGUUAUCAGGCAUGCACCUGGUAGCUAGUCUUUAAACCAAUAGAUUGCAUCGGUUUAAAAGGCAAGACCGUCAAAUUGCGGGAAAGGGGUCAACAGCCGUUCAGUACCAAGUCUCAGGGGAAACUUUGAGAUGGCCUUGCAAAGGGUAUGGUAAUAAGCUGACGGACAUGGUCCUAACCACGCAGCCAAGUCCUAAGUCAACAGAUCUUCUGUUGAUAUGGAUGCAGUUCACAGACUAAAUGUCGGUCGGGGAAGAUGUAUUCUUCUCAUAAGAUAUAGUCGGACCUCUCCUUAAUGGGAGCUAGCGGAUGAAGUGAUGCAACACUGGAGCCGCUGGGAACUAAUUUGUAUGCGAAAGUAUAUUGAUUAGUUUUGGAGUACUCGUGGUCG
Settings: 37 °C
Decision: self-splicing fitness (ln) compared against -0.9; not below it gives condition met, below it gives condition not met.

Worked set:
INSERT INTO assay_data (polymer_sequence, cat) VALUES
  ('GCGGAGCAAUAUUACGCUUG', 'condition not met'),
  ('CAACAGCAAUAUUACGGCAU', 'condition not met'),
  ('CUCUAGCAAUAUUACGCAUU', 'condition not met'),
  ('AUCUAGCAAUAUUACGAGGU', 'condition not met'),
  ('UUCGAGCAAUAUUACGACCA', 'condition not met'),
  ('UCCUAGCAAUAUUACGCUGG', 'condition not met'),
  ('AUCGAGCAAUAUUACGAAAG', 'condition met'),
  ('ACCAAGCAAUAUUACGCUGU', 'condition met'),
  ('CAGUAGCAAUAUUACGUUUC', 'condition not met'),
  ('GGGCAGCAAUAUUACGGGUA', 'condition not met');

Lookup: Could you please find out whether "GUUGAGCAAUAUUACGGCGC" has self-splicing fitness (ln) that meets -0.9 or exceeds it?
Found: condition met

Lookup: Could you please find out whether "ACGCAGCAAUAUUACGCGAU" has self-splicing fitness (ln) that meets -0.9 or exceeds it?
Found: condition not met

Lookup: Could you please find out whether "GUUCAGCAAUAUUACGUUGG" has self-splicing fitness (ln) that meets -0.9 or exceeds it?
Found: condition not met

Lookup: Could you please find out whether "AAUGAGCAAUAUUACGUGGA" has self-splicing fitness (ln) that meets -0.9 or exceeds it?
Found: condition not met

Lookup: Could you please find out whether "CAAGAGCAAUAUUACGAUCU" has self-splicing fitness (ln) that meets -0.9 or exceeds it?
Found: condition not met

Lookup: Could you please find out whether "GCACAGCAAUAUUACGUCUA" has self-splicing fitness (ln) that meets -0.9 or exceeds it?
Found: condition met

Lookup: Could you please find out whether "AAUUAGCAAUAUUACGGCAC" has self-splicing fitness (ln) that meets -0.9 or exceeds it?
Found: condition met

Lookup: Could you please find out whether "ACGGAGCAAUAUUACGCUAC" has self-splicing fitness (ln) that meets -0.9 or exceeds it?
Found: condition not met
